target: T1, EGFRvIII peptide-OVA (PEP3 14-mer conjugated to ovalbumin) (human, also: conjugated to OVA, chemistry not given here); test: XenoMax screening
T1 construct: also called VIII-pep-OVA; muEGFr
T1 peptide: LEEKKGNYVVTDHC
No end group written: not given here.
assay.endpoint: binding result

SC-EGFRvIII-XG1-250 (antibody, V domains shown, also called SC250; sc250) VH: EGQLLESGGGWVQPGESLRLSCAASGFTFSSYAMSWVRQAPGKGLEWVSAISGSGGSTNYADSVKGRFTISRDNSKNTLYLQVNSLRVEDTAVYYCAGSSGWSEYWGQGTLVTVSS VL: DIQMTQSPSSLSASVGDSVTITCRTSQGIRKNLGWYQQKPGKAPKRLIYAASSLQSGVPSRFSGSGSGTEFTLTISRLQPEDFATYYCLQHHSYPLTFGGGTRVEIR | binds
AB-EGFRvIII-XG1-095 (antibody, V domains shown, also called SC95; sc95) VH: QVQLQESGPFLVKPSQTLSLTCTVSGGSISSGGYYWSWIRQHPGKGLEWIGFIYYRGNTYYNPSLKSRVTISVDTSKNQFSLKLSSVTAADTAVYYCARDGYCSRTGCYGGWFDPWGQGTLVTVSP VL: DIVMTQTPLSSPVTLGQPASISCRSSQSLIHTDGNIYLSWLQQRPGQPPRLLIYKISNRFSGVPDRFSGSGAGTDFTLKISRVEAEDVGVYYCMQGTQFPITFGQGTRLEIK | binds
SC-EGFRvIII-XG1-131 (antibody, V domains shown, also called SC131; sc131) VH: QVQLVESGGGVVQSGRSLRLSCAASGFTFRNYGMHWVRQAPGKGLEWVAVIWYDGSDKYYADSVRGRFTISRDNSKNTLYLQMNSLRAEDTAVYYCARDGYDILTGNPRDFDYWGQGTLVTVSS VL: DTVMTQTPLSSHVTLGQPASISCRSSQSLVHSDGNTYLSWLQQRPGQPPRLLIYRISRRFSGVPDRFSGSGAGTDFTLEISRVEAEDVGVYYCMQSTHVPWTFGQGTKVEIK | binds
SC-EGFRvIII-XG1-139 (antibody, V domains shown, also called SC139; sc139) VH: EVQVLESGGGLVQPGGSLRLSCAASGFTFSSYAMSWVRQAPGKGLEWVSAISGSGGSTNYADSVKGRFTISRDNSKNTLYLQMNSLRAEDTAVYYCAGSSGWSEYWGQGTLVTVSS VL: DIQMTQSPSSLSASVGDRVTITCRASQGIRNNLAWYQQKPGKAPKRLIYAASNLQSGVPSRFTGSGSGTEFTLIVSSLQPEDFATYYCLQHHSYPLTSGGGTKVEIK | binds
